Test system: Mycobacterium kansasii
Assay: Antimycobacterial activity against Mycobacterium kansasii 6509/96 after 7 days by microdilution method
Format: functional
Settings: 6509/96, 168 h
Overview of recorded MIC for various compounds
Give a bare numeral; the unit µM is implied.

Nc1ccc(C(=O)O)c(O)c1 = 32
O=C(Oc1ccc(Cl)cc1C(=O)Nc1ccc(C(F)(F)F)cc1)c1ccc(C(F)(F)F)cc1 = 1
O=C(Oc1ccc(Cl)cc1C(=O)Nc1ccc(Cl)c(Cl)c1)c1ccc(Br)cc1 = 1
Cc1ccc(C(=O)Oc2ccc(Cl)cc2C(=O)Nc2ccc(Cl)c(Cl)c2)cc1 = 2
O=C(Oc1ccc(Br)cc1C(=O)Nc1ccc(C(F)(F)F)cc1)c1ccc([N+](=O)[O-])cc1 = 0.5
O=C(Oc1ccc(Cl)cc1C(=O)Nc1ccc(C(F)(F)F)cc1)c1ccccc1 = 2

Supply reported MIC belonging to this compound: `O=C(Nc1ccc(C(F)(F)F)cc1)c1cc(Br)ccc1O`
2
